INHIBITION values by entry
Tested on: Plasmodium falciparum
Assay: Screen against P. falciparum Asexual Blood Stage (ABS), at 5uM
Format: functional, Dd2
Settings: tested at 5 uM
The whole screen tested about 65,000 compounds, of which about 2,100 (3.2%) showed an effect of 50% or more. The median lay at about -52%. Only a selection was taken, and strong results are over-represented in it overall.
reported.property: INHIBITION (%)

CN(CC(=O)Nc1cccnc1)C1CCCN(c2cccnn2)C1 (centres undefined) : 8.25
CCOC(=O)Cc1n[nH]c(-c2cncc(Br)c2)n1 : -109
Cc1ncc(CN(C)CCO)c2cc(C(=O)c3ccc(Br)cc3)oc12 : 49.9
COCCN1CCCC1c1nccnc1Nc1nccs1 (centres undefined) : 1.36
Cc1ncc(CN2CCOCC2)c2cc(C(=O)c3ccc(Br)cc3)oc12 : -2.54
O=C1CCCC2(CCN(C(=O)c3cnccn3)CC2)N1 : -96.5
Cc1cc(CC(C)Nc2ncc(C)c(N(C)C)n2)[nH]n1 (centres undefined) : -13.9
CCC(C)C(=O)Nc1ccc(CCN2CCOCC2)cc1 (centres undefined) : -81
O=C1CCC2(CCCN(C(=O)c3cnccn3)CC2)N1 (centres undefined) : 51.9
CN(C)C(=O)C1(Oc2ccc(Cl)cc2)CCNCC1 : 49.2
CCc1ccc2nc(C)cc(C(=O)N[C@@H]3CCCNC3)c2c1 : 64.5
CC(C)(C)c1csc(CCNC(=O)[C@H](c2ccccc2)n2cnnn2)n1 : -92.7
Cc1ccc(OC2(C(=O)N(C)Cc3ccoc3)CCNCC2)cc1 : 63.5
O=C1CCC2(CCCN(C(=O)c3cccnc3)CC2)N1 (centres undefined) : -40.9
COC(=O)CNC(=O)c1nc(-c2ccccc2OC)c2cnccn12 : -115
Cn1cnc2c1C(COCC1CC1)CN(Cc1ccc3c(c1)OCO3)C2 (centres undefined) : 41.1
CCOc1nnc(CN(CC)CC(=O)Nc2c(F)cccc2F)s1 : -13.5
NC(=O)C1(c2cnccn2)CCCN1Cc1ccncc1 (centres undefined) : -58.5
CN(Cc1ccncn1)C(=O)C1(Oc2ccc(Cl)cc2)CCNCC1 : -74.1
Cc1ncc(CN2CCCC2)c2cc(C(=O)c3ccc(Br)cc3)oc12 : 67.5
Cn1ccnc1CN1CCN(CCOc2cccc(C#N)c2)CC1 : -53.6
COCCC(=O)N1C[C@H]2CN(Cc3cccnc3)C(=O)[C@H]2C1 : -55.2
COc1ccccc1OC1CN(C(=O)c2ccccc2C(C)=O)C1 : -184
CCc1ccc2nc(C)cc(C(=O)NC[C@@H]3CCNC[C@H]3O)c2c1 : -49.3

====

Test system: Plasmodium falciparum
Assay: Screen against P. falciparum Asexual Blood Stage (ABS), at 5uM
Type: functional, Dd2
Settings: tested at 5 uM
Out of some 65,000 compounds screened, about 2,100 (3.2%) showed an effect of 50% or more. The median lay at about -52%. The list comes from a sample in which strong results are over-represented; it also holds close analogues and randomly drawn compounds.
reported.property: INHIBITION (%)

CCc1noc(CN(CC)Cc2cc3ccc(F)cc3[nH]c2=O)n1 : -9.14
CCN(Cc1nc(COC)no1)Cc1cc2ccc(F)cc2[nH]c1=O : 62.2
CN(C)C(=O)CN1C[C@H]2CC[C@@H](C1)N(C(=O)CCn1cncn1)C2 : -87.6
CC(O)CN1CCC(CNCc2ccccc2F)CC1 (centres undefined) : -0.868
CCCn1nc2c(cc1=O)CN(Cc1nc(CCOC)no1)CC2 : 62.4
CC(O)CN1CCC(CNCc2cccc(C(N)=O)c2)CC1 (centres undefined) : -73.1
CCOc1ccc(N2CCCN=C2NC(=O)c2cccc(C)c2)cc1 : -77.5
CCN(Cc1noc(CC(C)C)n1)Cc1cc2ccc(F)cc2[nH]c1=O : -109
CC(O)CN1CCC(CNCc2cccc(C(=O)N(C)C)c2)CC1 (centres undefined) : -81.9
CNC(=O)N1CCC2(CC1)c1ncc(-c3cccc(F)c3)n1CCN2C : -74
NC(=O)C1CCN(c2nc3nccc(-c4ccncc4)c3c(=O)[nH]2)CC1 : -23
Cc1noc(C)c1CNCC1CCN(CC(O)c2ccccc2)CC1 (centres undefined) : 43.4
COCCc1noc(CN2CCc3nn(C(C)C)c(=O)cc3C2)n1 : -60.6
Cc1ccc(CNCC2CCN(CC(O)c3ccccc3)CC2)o1 (centres undefined) : 62.5
O=c1[nH]c(NC2CCCC2)nc2nccc(-c3cccs3)c12 : 56.6
NC(=O)C1CCN(c2nc3nccc(-c4cccnc4)c3c(=O)[nH]2)CC1 : -16.2
CC(C)N(C)Cc1cnc2n1CCN(Cc1cccc(C#N)c1)C2 : 10.6
CN1CCCC(c2nccnc2-c2cccc(C(F)(F)F)c2)C1 (centres undefined) : 68.7
CC(O)CN1CCC(CNCc2ccccc2C(F)(F)F)CC1 (centres undefined) : 48.3
Cc1ncccc1CNCC1CCN(CC(O)c2ccccc2)CC1 (centres undefined) : 31.4
Cc1nc(CN2CCCC(N(C)CC3CCCC3)C2)no1 (centres undefined) : -42.4
O=C(O)Cn1nc(C2CC2)c2c(-c3cccs3)ccnc21 : -7.45
CCc1ccc(C2CC(=O)Nc3cc(OC)c(NS(C)(=O)=O)cc32)o1 (centres undefined) : -121
N[C@@H]1CC[C@@H](Nc2nccc(CCC(F)(F)F)n2)C1 : -4.32
